Attribution: ChEMBL document CHEMBL2311488

- Species on record: Rattus norvegicus
- testProtocol: in vitro
- recordedConditions: liver microsomes
So basically, if remaining at 0.5 h comes in under 80% it's 1 (yes), and if it's 80% or more it's 0 (no).

> print(dat)
                                 inputsmiles  qualitativelabel
 1  CCS(=O)(=O)c1ccc2[nH]c(Oc3ccc(-c4ccccc4)nc3)nc2c1            0 (no)
 2  CCS(=O)(=O)c1ccc2nc(OCC(F)(F)c3ccccc3)[nH]c2c1            0 (no)
 3  CCS(=O)(=O)c1ccc2[nH]c(Oc3ccc(OC(F)(F)F)cc3)nc2c1            0 (no)
 4  CCS(=O)(=O)c1ccc2nc(OCc3cccc(Cl)c3)[nH]c2c1           1 (yes)
 5  CCS(=O)(=O)c1ccc2[nH]c(SCc3cccc(Cl)c3)nc2c1           1 (yes)
 6  CCS(=O)(=O)c1ccc2nc(OCCc3ccccc3)[nH]c2c1           1 (yes)
 7  CCS(=O)(=O)c1ccc2nc(Oc3ccc(-c4ccccc4)cn3)[nH]c2c1            0 (no)
 8  CCS(=O)(=O)c1ccc2[nH]c(C(=O)c3ccc(-c4ccccc4)cc3)nc2c1            0 (no)
 9  CCS(=O)(=O)c1ccc2[nH]c(Oc3ccc(-c4ccccc4)cc3)nc2c1            0 (no)
10  CCS(=O)(=O)c1ccc2nc(Oc3cccc(OC(F)(F)F)c3)[nH]c2c1            0 (no)
11  CCS(=O)(=O)c1ccc2[nH]c(Oc3cccc(C(F)(F)F)c3)nc2c1            0 (no)
12  CCS(=O)(=O)c1ccc2[nH]c(Oc3cccc(-c4ccccc4)c3)nc2c1           1 (yes)
13  CCS(=O)(=O)c1ccc2nc(Oc3ccc(C(F)(F)F)cc3)[nH]c2c1            0 (no)
14  CCS(=O)(=O)c1ccc2[nH]c(O[C@H]3CC[C@H](c4ccccc4)CC3)nc2c1            0 (no)
15  CCS(=O)(=O)c1ccc2nc(Cc3ccc(-c4ccccc4)cc3)[nH]c2c1           1 (yes)

---

These records show pIC50 for Neuropeptide Y receptor type 5 (Mus musculus).
pIC50: −log10 of the molar value.
readoutLabel: pIC50

> print(dat)
                                inputsmiles  readoutlabel  measurednumber
1  CCS(=O)(=O)c1ccc2nc(Oc3ccc(C(F)(F)F)cc3)[nH]c2c1         pIC50            7.01
2  CCS(=O)(=O)c1ccc2[nH]c(Oc3cccc(C(F)(F)F)c3)nc2c1         pIC50            7.39
3  CCS(=O)(=O)c1ccc2nc(OCC(F)(F)c3ccccc3)[nH]c2c1         pIC50            8.36
4  CCS(=O)(=O)c1ccc2[nH]c(Oc3ccc(-c4ccccc4)cc3)nc2c1         pIC50            8.55

---

A short record of pIC50 observed with UniProt:O70342 follows.
pIC50: −log10 of the molar value.
readoutLabel: pIC50

> print(dat)
                                inputsmiles      testtarget  measurednumber
1  CCS(=O)(=O)c1ccc2nc(OCCc3ccccc3)[nH]c2c1  UniProt:O70342            7.60
2  CCS(=O)(=O)c1ccc2[nH]c(Oc3ccccc3C(F)(F)F)nc2c1  UniProt:O70342            5.50
3  CCS(=O)(=O)c1ccc2[nH]c(SCc3cccc(Cl)c3)nc2c1  UniProt:O70342            7.92
4  CCS(=O)(=O)c1ccc2nc(Oc3ccc(-c4ccccc4)cn3)[nH]c2c1  UniProt:O70342            7.02
5  CCS(=O)(=O)c1ccc2[nH]c(Oc3ccc(-c4ccccc4)nc3)nc2c1  UniProt:O70342            8.53

---

Form field: log10(solubility kinetic) (one value per entry).
- testProtocol: physchem
- recordedConditions: pH 6.8
readoutLabel: log10(solubility kinetic) (log10 of the value in µM)

> print(dat)
                                 inputsmiles  measurednumber
 1  CCS(=O)(=O)c1ccc2[nH]c(O[C@H]3CC[C@H](c4ccccc4)CC3)nc2c1            0.79
 2  CCS(=O)(=O)c1ccc2[nH]c(SCc3cccc(Cl)c3)nc2c1            1.44
 3  CCS(=O)(=O)c1ccc2nc(Oc3ccc(-c4ccccc4)cn3)[nH]c2c1            1.66
 4  CCS(=O)(=O)c1ccc2nc(C(F)(F)c3ccc(-c4ccccc4)cc3)[nH]c2c1           -0.52
 5  CCS(=O)(=O)c1ccc2[nH]c(Oc3ccc(-c4ccccc4)cc3)nc2c1            0.40
 6  CCS(=O)(=O)c1ccc2[nH]c(Oc3ccc(-c4ccccc4)nc3)nc2c1            1.60
 7  CCS(=O)(=O)c1ccc2nc(OCc3cccc(Cl)c3)[nH]c2c1            1.70
 8  CCS(=O)(=O)c1ccc2[nH]c(Oc3cccc(-c4ccccc4)c3)nc2c1            0.62
 9  CCS(=O)(=O)c1ccc2[nH]c(C3(c4ccc(-c5ccccc5)cc4)CC3)nc2c1           -0.30
10  CCS(=O)(=O)c1ccc2nc(Cc3ccc(-c4ccccc4)cc3)[nH]c2c1            0.48
11  CCS(=O)(=O)c1ccc2[nH]c(C(=O)c3ccc(-c4ccccc4)cc3)nc2c1           -0.52

---

remaining at 0.5 h reference
- testProtocol: in vitro
- recordedConditions: human, liver microsomes
readoutLabel: remaining at 0.5 h

> print(dat)
                                inputsmiles   result
1  CCS(=O)(=O)c1ccc2nc(Oc3ccc(-c4ccccc4)cn3)[nH]c2c1    89.2%
2  CCS(=O)(=O)c1ccc2nc(Oc3cccc(OC(F)(F)F)c3)[nH]c2c1    97.1%
3  CCS(=O)(=O)c1ccc2[nH]c(Oc3cccc(-c4ccccc4)c3)nc2c1    29.1%
4  CCS(=O)(=O)c1ccc2nc(Cc3ccc(-c4ccccc4)cc3)[nH]c2c1    87.6%
5  CCS(=O)(=O)c1ccc2[nH]c(C(=O)c3ccc(-c4ccccc4)cc3)nc2c1  > 99.9%
6  CCS(=O)(=O)c1ccc2nc(OCc3cccc(Cl)c3)[nH]c2c1    88.5%
7  CCS(=O)(=O)c1ccc2[nH]c(Oc3ccc(-c4ccccc4)cc3)nc2c1  > 99.9%

---

- testProtocol: in vitro
- recordedConditions: human, liver microsomes
Reported remaining at 0.5 h values for a set of compounds
readoutLabel: remaining at 0.5 h (%)

> print(dat)
                                 inputsmiles  operator  measurednumber
 1  CCS(=O)(=O)c1ccc2[nH]c(C3(c4ccc(-c5ccccc5)cc4)CC3)nc2c1         =            88.5
 2  CCS(=O)(=O)c1ccc2nc(Oc3ccc(C(F)(F)F)cc3)[nH]c2c1         =            95.2
 3  CCS(=O)(=O)c1ccc2[nH]c(Oc3ccc(OC(F)(F)F)cc3)nc2c1         =            92.8
 4  CCS(=O)(=O)c1ccc2[nH]c(SCc3cccc(Cl)c3)nc2c1         =            63.7
 5  CCS(=O)(=O)c1ccc2[nH]c(Oc3ccc(-c4ccccc4)nc3)nc2c1         =            98.6
 6  CCS(=O)(=O)c1ccc2nc(C(F)(F)c3ccc(-c4ccccc4)cc3)[nH]c2c1         =             0.1
 7  CCS(=O)(=O)c1ccc2[nH]c(O[C@H]3CC[C@H](c4ccccc4)CC3)nc2c1         >            99.9
 8  CCS(=O)(=O)c1ccc2nc(OCCc3ccccc3)[nH]c2c1         =            88.1
 9  CCS(=O)(=O)c1ccc2nc(OCC(F)(F)c3ccccc3)[nH]c2c1         =            97.9
10  CCS(=O)(=O)c1ccc2[nH]c(Oc3cccc(C(F)(F)F)c3)nc2c1         >            99.9
